Each entry below lists one item and its recorded ELISA signal value.
tgt: T1, human CD137-Fc (human, biotin-labeled)
T1 construct: if 90 already holds the Fc, drop the second piece; also called biotin-labeled human CD137 fused to human IgG1 Fc fragment; biotin-human CD137-Fc; not shown: human IgG1 Fc fragment
assay details: bead ELISA on biotin-human CD137-Fc with 125 pmol/well free CD3e peptide as competitor;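 also: Streptavidin-coated magnetic beads in blocking buffer as the capture surface, well signal read as fluorescence 2 min after adding APS-5 substrate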
Enter the number alone.

Sample answers from the record:
dBBDu174 (antibody, V domains shown, Human IgG1; light chain GLS3000 (kappa)) VH: QVQLVESGGGLVQPGRSLRLSCAASGFTFSSAWMHWVRQAPGKGLEWVAQIKDRASAYNAYYAESVKGRFTISRDDSKNSIYLQMNSLKTEDTAVYYCRYVHYPSYVSFLPYYGVDAWGQGTTVTVSS VL: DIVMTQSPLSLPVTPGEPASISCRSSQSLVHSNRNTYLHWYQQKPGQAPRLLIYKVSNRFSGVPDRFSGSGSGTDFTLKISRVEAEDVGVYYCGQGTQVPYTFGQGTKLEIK = 1880
dBBDu189 (antibody, V domains shown, Human IgG1; light chain GLS3000 (kappa)) VH: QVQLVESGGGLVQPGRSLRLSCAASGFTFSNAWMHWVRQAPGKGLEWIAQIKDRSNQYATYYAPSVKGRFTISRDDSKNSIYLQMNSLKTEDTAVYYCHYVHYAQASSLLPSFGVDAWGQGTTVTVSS VL: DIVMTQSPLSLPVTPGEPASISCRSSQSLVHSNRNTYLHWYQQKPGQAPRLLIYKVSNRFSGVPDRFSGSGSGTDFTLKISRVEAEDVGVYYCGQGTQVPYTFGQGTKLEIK = 2190
dBBDu202 (antibody, V domains shown, Human IgG1; light chain GLS3000 (kappa)) VH: QVQLVESGGGLVQPGRSLRLSCAASGFTFSNAWMHWVRQAPGKGLEWVAQIKDKGNAYAAYYAPSVKGRFTISRDDSKNSIYLQMNSLKTEDTAVYYCHYVHYSAASTVLPAFGVDAWGQGTTVTVSS VL: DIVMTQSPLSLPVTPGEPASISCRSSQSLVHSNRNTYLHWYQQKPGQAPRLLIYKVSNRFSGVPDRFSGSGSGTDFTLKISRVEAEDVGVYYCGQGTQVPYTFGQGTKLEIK = 1930
DXDU01_3#019 (antibody, V domains shown, Human IgG1; light chain GLS3000 (kappa); also called dBBDu125) VH: QVQLVESGGGLVQPGRSLRLSCAASGFTFSIAWMHWVRQAPGKGLEWVAQIKDKVNGYTAYYAESVKGRFTISRDDSKNSIYLQMNSLKTEDTAVYYCRYVHYAAYYDVLGYGGVDAWGQGTTVTVSS VL: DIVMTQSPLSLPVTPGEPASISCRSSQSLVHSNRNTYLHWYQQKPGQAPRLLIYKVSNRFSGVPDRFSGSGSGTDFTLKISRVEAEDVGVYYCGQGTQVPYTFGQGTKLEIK = 2060
dBBDu217 (antibody, V domains shown, Human IgG1; light chain GLS3000 (kappa)) VH: QVQLVESGGGLVQPGRSLRLSCAASGFTFSNAWMHWVRQAPGKGLEWVAQIKDRQQGYATYYAPSVKGRFTISRDDSKNSIYLQMNSLKTEDTAVYYCRFVHYHLAGYGYYGVDAWGQGTTVTVSS VL: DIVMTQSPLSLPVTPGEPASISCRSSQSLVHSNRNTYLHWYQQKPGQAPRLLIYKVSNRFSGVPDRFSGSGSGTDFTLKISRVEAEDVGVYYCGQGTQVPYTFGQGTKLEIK = 2420

Q: Reported ELISA signal, binder dBBDu222 (antibody, V domains shown, Human IgG1; light chain GLS3000 (kappa)) VH: QVQLVESGGGLVQPGRSLRLSCAASGFTISSAWMHWVRQAPGKGLEWVAQIKDRANGYAAYYAPSVKGRFTISRDDSKNSIYLQMNSLKTEDTAVYYCRYVHYATAYDGFYGFGVDAWGQGTTVTVSS VL: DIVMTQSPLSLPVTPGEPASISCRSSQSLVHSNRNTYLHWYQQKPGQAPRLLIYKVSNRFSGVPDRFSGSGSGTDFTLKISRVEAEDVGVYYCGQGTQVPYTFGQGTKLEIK : ____
A: 3240
